From: ChEMBL document CHEMBL3102853

System: SNB-75
assay remarks: Cytotoxicity against human SNB75 cells at 10 uM
Type: functional
test context: read-out: GI
measured endpoint: inhibition of growth at 10 µM (%)

1. Cc1cc(S(=O)(=O)NC(=N)NCc2ccc(S(N)(=O)=O)cc2)c(SCc2ccccc2)cc1Cl 43
2. Cc1cc(S(=O)(=O)NC(=N)NCc2ccc(S(N)(=O)=O)cc2)c(SCc2cc3c(cc2Cl)OCO3)cc1Cl 42
3. Cc1cc(S(=O)(=O)NC(=N)Nc2nnc(S(N)(=O)=O)s2)c(SCc2ccccc2)cc1Cl 18
4. Cc1cc(S(=O)(=O)NC(=N)Nc2cccc(S(N)(=O)=O)c2)c(SCc2ccccc2)cc1Cl 35
5. Cc1cc(S(=O)(=O)NC(=N)Nc2cccc(S(N)(=O)=O)c2)c(SCc2ccc(C(F)(F)F)cc2)cc1Cl 53
6. Cc1cc(S(=O)(=O)NC(=N)NCc2ccc(S(N)(=O)=O)cc2)c(SCc2ccc(C(F)(F)F)cc2)cc1Cl 68
7. Cc1cc(S(=O)(=O)NC(=N)Nc2nnc(S(N)(=O)=O)s2)c(SCc2cccc3ccccc23)cc1Cl 11
8. Cc1cc(S(=O)(=O)NC(=N)Nc2ccc(S(N)(=O)=O)cc2)c(SCc2cc3c(cc2Cl)OCO3)cc1Cl 22
9. Cc1cc(S(=O)(=O)NC(=N)Nc2ccc(S(N)(=O)=O)cc2)c(SCc2ccc(C(F)(F)F)cc2)cc1Cl 71
